Hello, the source for this data is patent US20230408517A1, in case you need it.

- System under test: recombinant SARS-CoV-2 spike S1 RBD (R319-F541), C-terminal 6-His (SARS-CoV-2, UniProt P0DTC2 319-541)
- Protocol notes: flow cytometry, blocking of binding to hACE-2 cells
Each record here notes measured percent blocking.
Recorded endpoint: percent blocking (%)

>>> measured_number("1035414 (antibody, V domains shown) VH: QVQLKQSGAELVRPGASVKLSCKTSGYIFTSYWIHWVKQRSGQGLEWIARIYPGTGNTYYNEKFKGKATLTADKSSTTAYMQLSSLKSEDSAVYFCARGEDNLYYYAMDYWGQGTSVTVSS VL: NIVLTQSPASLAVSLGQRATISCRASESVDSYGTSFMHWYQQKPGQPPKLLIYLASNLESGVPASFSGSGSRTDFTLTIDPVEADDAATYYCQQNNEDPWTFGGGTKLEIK")
85.2
>>> measured_number("1035752 (antibody, V domains shown) VH: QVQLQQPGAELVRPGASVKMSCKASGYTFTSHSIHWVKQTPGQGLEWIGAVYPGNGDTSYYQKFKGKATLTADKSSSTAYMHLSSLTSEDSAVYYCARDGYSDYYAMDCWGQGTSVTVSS VL: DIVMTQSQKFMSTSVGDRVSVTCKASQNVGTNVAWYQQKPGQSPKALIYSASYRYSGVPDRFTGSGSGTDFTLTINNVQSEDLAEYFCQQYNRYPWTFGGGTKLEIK")
94.5
>>> measured_number("1035240 (antibody, V domains shown) VH: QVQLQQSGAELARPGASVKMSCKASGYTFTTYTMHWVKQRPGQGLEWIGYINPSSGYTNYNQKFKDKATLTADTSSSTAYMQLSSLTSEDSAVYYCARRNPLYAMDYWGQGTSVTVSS VL: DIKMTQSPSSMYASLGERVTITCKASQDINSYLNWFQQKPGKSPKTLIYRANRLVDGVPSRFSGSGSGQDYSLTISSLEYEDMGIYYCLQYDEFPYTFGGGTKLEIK")
99.1
